Data origin, for the record: PubChem BioAssay AID2060496

Test system: 276233-004-R-J1-PDC complex spheroid viability
MEASUREMENT_DESCRIPTION: Anticancer human tumor 276233-004-R-J1-PDC patient-derived colon adenocarcinoma cell line growth inhibition [GQUAD]
SETUP_CONDITIONS: second compound 1 µM; first compound 0.316 µM; active compounds read low
ASSAY_METRIC: viability, T/C (%)
Value expressed in %; do not type the unit.

Task item: Form: Entry = CC(=O)O[C@H]1C(=O)[C@@]2(C)[C@H]([C@H](OC(=O)c3ccccc3)[C@]3(O)C[C@H](OC(=O)[C@H](O)[C@@H](NC(=O)c4ccccc4)c4ccccc4)C(C)=C1C3(C)C)[C@]1(OC(C)=O)CO[C@@H]1C[C@@H]2O + CN(C)c1ccc(Nc2c3ccc(NC(=O)CCN4CCCC4)cc3nc3cc(NC(=O)CCN4CCCC4)ccc23)cc1 | System = 276233-004-R-J1-PDC complex spheroid viability | viability, T/C = ____
Reply: 57

Task item: How about CC(C)n1c(=O)n(C)c2cnc3cc(F)c(-c4ccc(OCCCN5CCCCC5)nc4)cc3c21 + CN(C)c1ccc(Nc2c3ccc(NC(=O)CCN4CCCC4)cc3nc3cc(NC(=O)CCN4CCCC4)ccc23)cc1 ?
Reply: 62.1

Task item: Lookup C#Cc1c(F)ccc2cc(O)cc(-c3ncc4c(N5CC6CCC(C5)N6)nc(OCC56CCCN5CC(F)C6)nc4c3F)c12 (centres undefined) + Cc1cnc(CNC(=O)c2c(=O)c3ccc(N4CCCN(C)CC4)nc3n3c2sc2ccccc23)cn1
Reply: 75.5

Task item: Likewise for C=CC(=O)N1CCN(c2nc(=O)n(-c3c(C)ccnc3C(C)C)c3nc(-c4c(O)cccc4F)c(F)cc23)C(C)C1 (centres undefined) + Cc1cnc(CNC(=O)c2c(=O)c3ccc(N4CCCN(C)CC4)nc3n3c2sc2ccccc23)cn1 ?
Reply: 88.9

----------
Tested on: 276233-004-R-J1-PDC complex spheroid viability
MEASUREMENT_DESCRIPTION: Anticancer human tumor 276233-004-R-J1-PDC cell line growth inhibition [GQUAD];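 further: spheroids exposed to drugs for seven days; 100% = DMSO vehicle control viability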
SETUP_CONDITIONS: second compound 3.16 µM; first compound 1 µM; active compounds read low
Consider the following compounds; for each one, report its viability, T/C.
Number only, in %; omit the unit.

Task item: Form entry - test system: 276233-004-R-J1-PDC complex spheroid viability; read-out: viability, T/C; compound: CC1COCCN1c1cc(-c2ccnn2C)c2ccnc(-c3ccn[nH]3)c2n1 (centres undefined) + Cc1[nH]c2ccc(F)cc2c1-c1nc2c3cccnc3c3ncccc3c2[nH]1
Reply: 45.1

Task item: Next: CC(C)n1c(=O)n(C)c2cnc3cc(F)c(-c4ccc(OCCCN5CCCCC5)nc4)cc3c21 + Cc1[nH]c2ccc(F)cc2c1-c1nc2c3cccnc3c3ncccc3c2[nH]1
Reply: 45.8

Task item: Then C=CCn1c(=O)c2cnc(Nc3ccc(N4CCN(C)CC4)cc3)nc2n1-c1cccc(C(C)(C)O)n1 + Cc1cnc(CNC(=O)c2c(=O)c3ccc(N4CCCN(C)CC4)nc3n3c2sc2ccccc23)cn1 ?
Reply: 55.4

Task item: Moving on to CC1COCCN1c1cc(-c2ccnn2C)c2ccnc(-c3ccn[nH]3)c2n1 (centres undefined) + CN(C)c1ccc(Nc2c3ccc(NC(=O)CCN4CCCC4)cc3nc3cc(NC(=O)CCN4CCCC4)ccc23)cc1
Reply: 40.5

----------
Test system: 276233-004-R-J1-PDC complex spheroid viability
MEASUREMENT_DESCRIPTION: Anticancer human tumor 276233-004-R-J1-PDC cell line growth inhibition [GQUAD];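 further: spheroids exposed to drugs for seven days; 100% = DMSO vehicle control viability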
SETUP_CONDITIONS: second compound 3.16 µM; first compound 0.0316 µM; active compounds read low
ASSAY_METRIC: viability, T/C

Task item: Record lookup: for 276233-004-R-J1-PDC complex spheroid viability, what viability, T/C belongs to O=C(NO)c1cnc(N2CCN(S(=O)(=O)c3ccc4ccccc4c3)CC2)nc1 + Cc1[nH]c2ccc(F)cc2c1-c1nc2c3cccnc3c3ncccc3c2[nH]1 ?
Reply: 17.4%

Task item: Now try COc1cccc2c1C(=O)c1c(O)c3c(c(O)c1C2=O)CC(O)(C(=O)CO)CC3OC1CC(N)C(O)C(C)O1 (stereo not given) + CN(C)c1ccc(Nc2c3ccc(NC(=O)CCN4CCCC4)cc3nc3cc(NC(=O)CCN4CCCC4)ccc23)cc1 .
Reply: 49.6%

Task item: Also CC1COCCN1c1cc(C2(S(C)(=N)=O)CC2)nc(-c2ccnc3[nH]ccc23)n1 (stereo not given) + Cc1[nH]c2ccc(F)cc2c1-c1nc2c3cccnc3c3ncccc3c2[nH]1 ?
Reply: 56.2%

Task item: What about C=CC(=O)N1CCN(c2nc(=O)n(-c3c(C)ccnc3C(C)C)c3nc(-c4c(O)cccc4F)c(F)cc23)C(C)C1 (stereo not given) + CN(C)c1ccc(Nc2c3ccc(NC(=O)CCN4CCCC4)cc3nc3cc(NC(=O)CCN4CCCC4)ccc23)cc1 ?
Reply: 48.2%

Task item: And what about the molecule COc1ccc([C@@H](O)c2cc(-c3ncnc4cc(N5CCOCC5)ccc34)c(F)cc2Cl)nn1 + Cc1cnc(CNC(=O)c2c(=O)c3ccc(N4CCCN(C)CC4)nc3n3c2sc2ccccc23)cn1 ?
Reply: 69.2%

----------
System: 276233-004-R-J1-PDC complex spheroid viability
MEASUREMENT_DESCRIPTION: Anticancer human tumor 276233-004-R-J1-PDC cell line growth inhibition [GQUAD];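 further: spheroids exposed to drugs for seven days; 100% = DMSO vehicle control viability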
SETUP_CONDITIONS: second compound 0.316 µM; first compound 10 µM; active compounds read low
One threshold, 50%, splits the recorded viability, T/C values: lower ones are true (1), equal or higher ones are false (0).

Task item: For this compound, is viability, T/C lower than 50%? CC(=O)O[C@H]1C(=O)[C@@]2(C)[C@H]([C@H](OC(=O)c3ccccc3)[C@]3(O)C[C@H](OC(=O)[C@H](O)[C@@H](NC(=O)c4ccccc4)c4ccccc4)C(C)=C1C3(C)C)[C@]1(OC(C)=O)CO[C@@H]1C[C@@H]2O + CN(C)c1ccc(Nc2c3ccc(NC(=O)CCN4CCCC4)cc3nc3cc(NC(=O)CCN4CCCC4)ccc23)cc1
Reply: false (0)

Task item: Same again, this time with C#Cc1c(F)ccc2cc(O)cc(-c3ncc4c(N5CC6CCC(C5)N6)nc(OCC56CCCN5CC(F)C6)nc4c3F)c12 (stereo not given) + CN(C)c1ccc(Nc2c3ccc(NC(=O)CCN4CCCC4)cc3nc3cc(NC(=O)CCN4CCCC4)ccc23)cc1
Reply: true (1)

Task item: Please give the result for COc1cccc2c1C(=O)c1c(O)c3c(c(O)c1C2=O)CC(O)(C(=O)CO)CC3OC1CC(N)C(O)C(C)O1 (stereo not given) + Cc1cnc(CNC(=O)c2c(=O)c3ccc(N4CCCN(C)CC4)nc3n3c2sc2ccccc23)cn1 too.
Reply: true (1)

Task item: // repeat for CC1COCCN1c1cc(C2(S(C)(=N)=O)CC2)nc(-c2ccnc3[nH]ccc23)n1 (stereo not given) + CN(C)c1ccc(Nc2c3ccc(NC(=O)CCN4CCCC4)cc3nc3cc(NC(=O)CCN4CCCC4)ccc23)cc1 and report
Reply: true (1)

Task item: Thanks! And Cc1cccc(N(C)C(=O)C2C(O)CCN2c2nc(C)cc(C(F)(F)F)c2C#N)c1 (stereo not given) + Cc1cnc(CNC(=O)c2c(=O)c3ccc(N4CCCN(C)CC4)nc3n3c2sc2ccccc23)cn1 ?
Reply: false (0)

Task item: Next entry: COc1ccc([C@@H](O)c2cc(-c3ncnc4cc(N5CCOCC5)ccc34)c(F)cc2Cl)nn1 + Cc1cnc(CNC(=O)c2c(=O)c3ccc(N4CCCN(C)CC4)nc3n3c2sc2ccccc23)cn1
Reply: true (1)

Task item: Try this compound next: CC1COCCN1c1cc(-c2ccnn2C)c2ccnc(-c3ccn[nH]3)c2n1 (stereo not given) + Cc1[nH]c2ccc(F)cc2c1-c1nc2c3cccnc3c3ncccc3c2[nH]1
Reply: false (0)

Task item: Follow-up item: CC1COCCN1c1cc(C2(S(C)(=N)=O)CC2)nc(-c2ccnc3[nH]ccc23)n1 (stereo not given) + Cc1cnc(CNC(=O)c2c(=O)c3ccc(N4CCCN(C)CC4)nc3n3c2sc2ccccc23)cn1
Reply: false (0)

Task item: Now this one: C#Cc1c(F)ccc2cc(O)cc(-c3ncc4c(N5CC6CCC(C5)N6)nc(OCC56CCCN5CC(F)C6)nc4c3F)c12 (stereo not given) + Cc1cnc(CNC(=O)c2c(=O)c3ccc(N4CCCN(C)CC4)nc3n3c2sc2ccccc23)cn1
Reply: false (0)

Task item: Another compound: CC1COCCN1c1cc(-c2ccnn2C)c2ccnc(-c3ccn[nH]3)c2n1 (stereo not given) + Cc1cnc(CNC(=O)c2c(=O)c3ccc(N4CCCN(C)CC4)nc3n3c2sc2ccccc23)cn1
Reply: true (1)

----------
Test system: 276233-004-R-J1-PDC complex spheroid viability
MEASUREMENT_DESCRIPTION: Anticancer human tumor 276233-004-R-J1-PDC cell line growth inhibition [GQUAD];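 further: spheroids exposed to drugs for seven days; 100% = DMSO vehicle control viability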
SETUP_CONDITIONS: second compound 10 µM; first compound 0.1 µM; active compounds read low
Consider the cut-off 50%. If the recorded viability, T/C is strictly smaller, the label is condition met; if not, the label is condition not met.

Task item: is_below(viability, T/C, 50%) for C=CCn1c(=O)c2cnc(Nc3ccc(N4CCN(C)CC4)cc3)nc2n1-c1cccc(C(C)(C)O)n1 + Cc1[nH]c2ccc(F)cc2c1-c1nc2c3cccnc3c3ncccc3c2[nH]1 ?
Reply: condition met

Task item: And what about the compound C=CC(=O)N1CCN(c2nc(=O)n(-c3c(C)ccnc3C(C)C)c3nc(-c4c(O)cccc4F)c(F)cc23)C(C)C1 (stereo unspecified) + Cc1cnc(CNC(=O)c2c(=O)c3ccc(N4CCCN(C)CC4)nc3n3c2sc2ccccc23)cn1 ?
Reply: condition not met

Task item: Similarly, Nc1ccn(C2OC(CO)C(O)C2(F)F)c(=O)n1 (stereo unspecified) + Cc1[nH]c2ccc(F)cc2c1-c1nc2c3cccnc3c3ncccc3c2[nH]1 ?
Reply: condition met

Task item: What would you report for C#Cc1c(F)ccc2cc(O)cc(-c3ncc4c(N5CC6CCC(C5)N6)nc(OCC56CCCN5CC(F)C6)nc4c3F)c12 (stereo unspecified) + CN(C)c1ccc(Nc2c3ccc(NC(=O)CCN4CCCC4)cc3nc3cc(NC(=O)CCN4CCCC4)ccc23)cc1 ?
Reply: condition met

Task item: For CC(C)n1c(=O)n(C)c2cnc3cc(F)c(-c4ccc(OCCCN5CCCCC5)nc4)cc3c21 + Cc1cnc(CNC(=O)c2c(=O)c3ccc(N4CCCN(C)CC4)nc3n3c2sc2ccccc23)cn1 then?
Reply: condition not met

Task item: // query: CC1COCCN1c1cc(C2(O)CC3CCC(C2)O3)c2cnn(-c3ccn[nH]3)c2n1 (stereo unspecified) + Cc1cnc(CNC(=O)c2c(=O)c3ccc(N4CCCN(C)CC4)nc3n3c2sc2ccccc23)cn1
Reply: condition not met

Task item: Query CC(=O)O[C@H]1C(=O)[C@@]2(C)[C@H]([C@H](OC(=O)c3ccccc3)[C@]3(O)C[C@H](OC(=O)[C@H](O)[C@@H](NC(=O)c4ccccc4)c4ccccc4)C(C)=C1C3(C)C)[C@]1(OC(C)=O)CO[C@@H]1C[C@@H]2O + CN(C)c1ccc(Nc2c3ccc(NC(=O)CCN4CCCC4)cc3nc3cc(NC(=O)CCN4CCCC4)ccc23)cc1 next
Reply: condition met

Task item: Okay, and CC(C)(O)C1CCC(Nc2ccc3ncc(-c4cccc(C(F)(F)F)c4)n3n2)CC1 (stereo unspecified) + Cc1[nH]c2ccc(F)cc2c1-c1nc2c3cccnc3c3ncccc3c2[nH]1 ?
Reply: condition met
